Catalogue of LD50 values
experiment-summary: toxicity test (LD50)
experimental-conditions: mouse, in vivo, ip; mice; read-out: LD50 i.p.
Kindly answer with a numeric value in mg/kg, unit omitted.

compound="COC(=S)Nc1nc(OC)nc(OC)n1 [No. 3]" property_label=LD50 result_value=500

Proceed to the following item.
Q. Looking for the measured LD50 of CCOC(=S)Nc1nc(OC)nc(OC)n1 [compound 4] , can you help?
A. 490
